FYI, the data here is from ChEMBL document CHEMBL1949525.

- STUDY SYSTEM: P2Y purinoceptor 1 (Meleagris gallopavo)
- MEASUREMENT DESCRIPTION: Antagonist activity at turkey P2Y purinoceptor 1 expressed in human 1321N1 cells assessed as inhibition of 2-Sme-ADP-induced increase in intracellular calcium concentration by spectrofluorimetry
- Type: functional, cell-based
Calls of active or inactive are those of the source. The rule behind the calls is not given here.

>  <COMPOUND>
BP(=O)(OP(=O)(O)OC[C@H]1O[C@@H](n2cnc3c(N)ncnc32)[C@H](O)[C@@H]1O)OP(=O)(O)OP(=O)(O)OC[C@H]1O[C@@H](n2ccc(=O)[nH]c2=O)[C@H](O)[C@@H]1O.CCCCN(CCCC)CCCC.CCCCN(CCCC)CCCC.CCCCN(CCCC)CCCC.CCCCN(CCCC)CCCC (stereo in doubt; 8B)

>  <Activity>
inactive

$$$$
>  <COMPOUND>
BP(=O)(OC[C@H]1O[C@@H](n2ccc(=O)[nH]c2=O)[C@H](O)[C@@H]1O)OP(=O)(O)OP(=O)(O)OC[C@H]1O[C@@H](n2ccc(=O)[nH]c2=O)[C@H](O)[C@@H]1O.CCCCN(CCCC)CCCC.CCCCN(CCCC)CCCC.CCCCN(CCCC)CCCC (stereo in doubt; 11A)

>  <Activity>
inactive

$$$$
